# protocol-summary: inhibitors of mutant huntingtin aggregation, primary screen, imaging, exon1htt(103Q)mCFP cells, high-content imaging (AID 483);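 also: compound exposure lasted 3 days before fixation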
# cond: exon1htt(103Q)mCFP cell line, aggregate imaging, at 2 µM; hits give high values
The source made the active and inactive calls.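 The calls were made as follows: active = visual image review flags a hit and inhibition of aggregation exceeds 20%; inconclusive = visual hit but inhibition at or below 20%; inactive = no hit on visual image review.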
recorded-endpoint: inhibition of aggregation

compound: Cc1oc(-c2cccc(Cl)c2)nc1CN1CCC(C(=O)N2CCN(c3ccccc3F)CC2)CC1
inhibition of aggregation: -4% (inactive)
--
compound: CCn1c(=O)cc(OCC(=O)NC2CCCCC2)c2ccccc21
inhibition of aggregation: -2.9% (inactive)
--
compound: CCc1cccc(NC(=O)CCc2nc(-c3cccs3)no2)c1
inhibition of aggregation: -7.6% (inactive)
--
compound: O=P1(O)C=C(c2ccccc2)NC(c2ccccc2)=C1
inhibition of aggregation: -6.9% (inactive)
--
compound: CCSc1nc2c(c(=O)[nH]1)C(c1cccnc1)C(C(=O)OC(C)C)=C(C)N2 (stereo unspecified)
inhibition of aggregation: 19.4% (inactive)

stdin: Entry under review: "Cc1cc(CN2CCN(CCC#N)CC2)c(O)c(C2(C)CCCCC2)c1" . Reported inhibition of aggregation?
stdout: 5.3% (inactive)

stdin: Entry under review: O=C(CSc1nnc(Cc2cc(=O)[nH]c(=O)[nH]2)n1-c1ccccc1)NCC1CCCO1 (stereo unspecified) . Reported inhibition of aggregation?
stdout: -3.9% (inactive)

stdin: Entry under review: CCCCC(NS(=O)(=O)c1ccc(OC)cc1)C(=O)O (stereo unspecified) . Reported inhibition of aggregation?
stdout: -16.5% (inactive)

###

# protocol-summary: inhibitors of poly I:C-induced TLR3 signaling, primary screen, cell-based, poly I:C stimulus, luciferase, 10K MLSCN set (AID 602277)
# cond: HEK293-TLR3 RL24 IRF3 luciferase reporter, at 10 µM, hits give high values
recorded-endpoint: inhibition (%)
State the answer as a number, implicitly in %.

Worked cases, answers included:
compound: CCOC(=O)c1cc2c(=O)n3cccc(C)c3nc2n(CC2CCCO2)c1=NC(C)=O (stereo unspecified)
unit-text: %
quantitative-readout: 8.19
//
compound: CCN1CCN(C(=O)c2oc(=O)c3ccccc3c2-c2ccc(C)cc2)CC1
unit-text: %
quantitative-readout: 27.7
//
compound: CCC1(C(=O)OC)NC(c2cccc(F)c2)C2C(=O)N(C)C(=O)C21 (stereo unspecified)
unit-text: %
quantitative-readout: 30.6

stdin: Entry under review: "Cc1ccccc1Nc1cc2ccccc2c(=O)[nH]1" . Reported inhibition?
stdout: 20.8

###

# protocol-summary: inhibitors of Sendai virus-induced IRF3 signaling, primary screen, TLR/RLR signaling modifier project, cell-based, Sendai virus stimulus, luciferase, 10K MLSCN set (AID 602276);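 also: firefly luciferase from ISG56 promoter only with Renilla not read in this screen; 0% = Sendai virus plus DMSO and 100% = medium plus DMSO without virus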
# cond: HEK293 RL24 IRF3 luciferase reporter, at 10 µM, hits give high values
recorded-endpoint: inhibition (%)
State the answer as a number, implicitly in %.

Worked cases, answers included:
compound: Cn1c(=O)c2c(nc(CN3CCCCC3)n2CCc2ccccc2)n(C)c1=O
inhibition / %: -6.67
//
compound: COc1cc(C(O)c2nc3ccccc3n2C)cc(OC)c1OC (stereo unspecified)
inhibition / %: 2.58
//
compound: O=C(Cn1cnc2c(nnn2-c2ccc(F)cc2)c1=O)N1CCCc2ccccc21
inhibition / %: 14
//
compound: O=C(CNC(=O)c1cc2ccccc2o1)NCc1cccs1
inhibition / %: 5.59
//
compound: CCCc1ccc(S(=O)(=O)NCCc2ccncc2)cc1
inhibition / %: -3.61
//
compound: C=CCOc1ccccc1/C=c1\sc2nc(=O)c(C)nn2c1=O
inhibition / %: 15.6
//
compound: CCN(CC)c1ccc(NC(=O)c2nc3nc(C)cc(C(F)F)n3n2)cc1
inhibition / %: 21.5
//
compound: COc1ccc(C2=NOC(C(=O)Nc3cc(Br)ccc3O)C2)cc1OC (stereo unspecified)
inhibition / %: 9.82

stdin: Entry under review: "O=S(=O)(c1cccs1)N1CCN(C/C=C/c2ccccc2)CC1" . Reported inhibition?
stdout: 10.2

stdin: Entry under review: "COc1ccc(-n2c(=O)[nH]cc(C(=O)Nc3ccc(NC(C)=O)cc3)c2=O)cc1" . Reported inhibition?
stdout: 9.68

stdin: Entry under review: CCCSc1nnc(N2C(=O)CC(c3ccsc3)C3=C2CCCC3=O)s1 (stereo unspecified) . Reported inhibition?
stdout: 5.11

stdin: Entry under review: "Cc1ccc(NC(=O)CSc2nnc(-c3ccccn3)n2C)cc1" . Reported inhibition?
stdout: 0.794

stdin: Entry under review: C=CCn1c(SCC(=O)c2ccc(OC)cc2)nnc1C(C)NC(=O)c1cccs1 (stereo unspecified) . Reported inhibition?
stdout: 10.6

stdin: Entry under review: C=C(Cl)COC(=O)[C@H]1C2C=CC(C2)C1C(=O)O (stereo partly specified) . Reported inhibition?
stdout: -6.49

stdin: Entry under review: "Cc1ccc(CCSCC(=O)O)cn1" . Reported inhibition?
stdout: 4.3

stdin: Entry under review: "O=C(Oc1cc2oc(=O)c3c(c2cc1Cl)CCCC3)c1ccco1" . Reported inhibition?
stdout: 4.58

stdin: Entry under review: "COc1ccccc1C(=O)N1CCN=C1SCc1cccnc1" . Reported inhibition?
stdout: -7.45

stdin: Entry under review: "CCn1c(CSc2nc(C)cc(C)n2)nnc1SCC(=O)Nc1ccccc1" . Reported inhibition?
stdout: -15.1

stdin: Entry under review: "C[C@H](NC(=O)NCc1cccs1)C(=O)O" . Reported inhibition?
stdout: 5.25

stdin: Entry under review: "Cc1nc(SCC(=O)CC(=O)OC(C)C)c(C#N)c(C)c1C" . Reported inhibition?
stdout: 5.7

stdin: Entry under review: COC(=O)C(O)(CC(=O)c1ccc(OC)cc1)C(F)(F)F (stereo unspecified) . Reported inhibition?
stdout: 9.29

stdin: Entry under review: CC1NC2(C(=O)N(Cc3ccccc3)c3ccccc32)C2C(=O)N(c3ccccc3)C(=O)C12 (stereo unspecified) . Reported inhibition?
stdout: 4.63

stdin: Entry under review: "CCCC(=O)N(c1ccc2oc(=O)sc2c1)S(=O)(=O)c1ccccc1" . Reported inhibition?
stdout: 14.8

From: PubChem BioAssay
